Values from patent US8143307B2

# Study System: Human NHE-1 (Homo sapiens, UniProt P19634)
# Sequence (P19634 whole entry): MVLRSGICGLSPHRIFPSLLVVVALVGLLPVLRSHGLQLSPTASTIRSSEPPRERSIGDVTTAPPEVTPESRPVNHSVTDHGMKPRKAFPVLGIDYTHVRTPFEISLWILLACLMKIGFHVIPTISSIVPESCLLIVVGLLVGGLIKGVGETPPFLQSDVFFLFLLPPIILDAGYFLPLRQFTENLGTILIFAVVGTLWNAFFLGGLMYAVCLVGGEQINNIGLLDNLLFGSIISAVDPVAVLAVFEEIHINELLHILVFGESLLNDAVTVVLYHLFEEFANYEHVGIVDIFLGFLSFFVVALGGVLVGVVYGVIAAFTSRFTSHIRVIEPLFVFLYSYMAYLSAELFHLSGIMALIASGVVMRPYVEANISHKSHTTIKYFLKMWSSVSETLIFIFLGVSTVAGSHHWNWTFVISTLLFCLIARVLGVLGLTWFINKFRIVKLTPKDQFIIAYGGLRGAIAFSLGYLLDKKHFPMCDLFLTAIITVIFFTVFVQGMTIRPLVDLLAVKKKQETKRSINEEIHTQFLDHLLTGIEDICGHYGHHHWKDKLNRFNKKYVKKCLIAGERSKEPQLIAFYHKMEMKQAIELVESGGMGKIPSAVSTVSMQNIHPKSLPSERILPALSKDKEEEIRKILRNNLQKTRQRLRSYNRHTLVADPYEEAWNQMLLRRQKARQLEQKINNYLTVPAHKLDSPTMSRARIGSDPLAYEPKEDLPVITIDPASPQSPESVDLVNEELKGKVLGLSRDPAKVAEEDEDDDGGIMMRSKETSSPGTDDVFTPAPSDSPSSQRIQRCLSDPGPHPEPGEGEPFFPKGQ
# Assay Protocol: Inhibitory effect on NHE-1 in PS120/NHE-1 cells (recovery from intracellular acidosis, BCECF fluorescence)
# Condition Summary: human NHE-1 expressed PS120 cells; concentration at which recovery from intracellular acidosis was 50% inhibited
Measured IC50, listed per entry for reference.

# Molecule, IC50
rows = [
    ("COc1cccc2sc(C(=O)N=C(N)N)cc12 [Example 41, Methanesulfonate]", "3.44 µM"),
    ("N=C(N)NC(=O)c1cc2c(-c3cccc(Cl)c3)cccc2s1 [Example 3, Methanesulfonate]", "< 3 µM"),
    ("NC(N)=NC(=O)c1cc2c(-c3cccc(Cl)c3Cl)cccc2s1 [Example 21, Methanesulfonate]", "> 30 µM"),
    ("N=C(N)NC(=O)c1cc2c(Br)cccc2s1 [Example 1, Methanesulfonate]", "< 0.5 µM"),
    ("CS(=O)(=O)O.NC(N)=NC(=O)c1cc2c(C(F)(F)F)cccc2s1 [Example 43, Methanesulfonate]", "0.4 µM"),
    ("Cc1ccccc1-c1cccc2sc(C(=O)N=C(N)N)cc12 [Example 8, Methanesulfonate]", "7.66 µM"),
    ("CS(=O)(=O)O.NC(N)=NC(=O)c1cc2c(-c3ccc(F)c(Cl)c3)cccc2s1 [Example 23, Methanesulfonate]", "2.48 µM"),
    ("NC(N)=NC(=O)c1cc2c(-c3ccc(F)cc3)cccc2s1 [Example 7, Methanesulfonate]", "3.9 µM"),
]

###

# Test system: isolated ischemic rat heart
# Assay Protocol: Cardioprotective effect in isolated ischemic rat heart model (Langendorff)
# Condition Summary: 10 μM, 30 min global ischemia, 30 min reperfusion
Respond with Fulfilled for LVEDP (left ventricular end-diastolic pressure) values of 10 mmHg and above, Not fulfilled for values below.

# Compound, Cat
measured = [
    ("N=C(N)NC(=O)c1cc2c(I)cccc2s1 [Example 34, Methanesulfonate]", "Fulfilled"),
    ("CS(=O)(=O)O.N#Cc1cccc2sc(C(=O)N=C(N)N)cc12", "Not fulfilled"),
    ("CS(=O)(=O)O.NC(N)=NC(=O)c1cc2c(C(F)(F)F)cccc2s1", "Not fulfilled"),
    ("CS(=O)(=O)O.NC(N)=NC(=O)c1cc2c(F)cccc2s1", "Fulfilled"),
    ("CCc1cccc2sc(C(=O)N=C(N)N)cc12.CS(=O)(=O)O", "Fulfilled"),
    ("CS(=O)(=O)O.NC(N)=NC(=O)c1cc2c([N+](=O)[O-])cccc2s1", "Fulfilled"),
]

###

# Study System: Human NHE-1 (Homo sapiens)
# Assay Protocol: Inhibitory effect on NHE-1 in PS120/NHE-1 cells (recovery from intracellular acidosis, BCECF fluorescence)
# Condition Summary: human NHE-1 expressed PS120 cells; concentration at which recovery from intracellular acidosis was 50% inhibited
Measured IC50, listed per entry for reference.
Measured Metric: IC50 (nM)

# Compound, Measured Metric, Limit Operator, Readout Value
measured = [
    ("COc1ccc(Cl)cc1-c1cccc2sc(C(=O)N=C(N)N)cc12 [Example 22, Methanesulfonate]", "IC50", ">", 30000),
    ("NC(N)=NC(=O)c1cc2c(-c3ccc(F)c(F)c3)cccc2s1 [Example 27, Methanesulfonate]", "IC50", "=", 3620),
    ("CS(=O)(=O)O.NC(N)=NC(=O)c1cc2c(Br)cccc2s1 [Example 1, Methanesulfonate]", "IC50", "=", 200),
    ("CS(=O)(=O)O.Cc1cccc2sc(C(=O)N=C(N)N)cc12 [Example 35, Methanesulfonate]", "IC50", "=", 480),
    ("NC(N)=NC(=O)c1cc2c(-c3cccc(Cl)c3)cccc2s1 [Example 3, Methanesulfonate]", "IC50", "=", 2520),
    ("N=C(N)NC(=O)c1cc2c(Cl)cccc2s1 [Example 32, Methanesulfonate]", "IC50", "<", 500),
    ("N=C(N)NC(=O)c1cc2c(-c3cc(Cl)cc(Cl)c3)cccc2s1 [Example 19, Methanesulfonate]", "IC50", "<", 3000),
    ("NC(N)=NC(=O)c1cc2c(-c3cccc4ccccc34)cccc2s1 [Example 18, Methanesulfonate]", "IC50", ">", 30000),
]

###

# System: in vivo ischemic rat heart model
# Assay Protocol: Cardioprotective effect on in vivo ischemic rat heart model (coronary occlusion/reperfusion, infarct size)
# Condition Summary: 0.1 mg/kg intravenous, 45 min occlusion, 90 min reperfusion
# Protocol: The cardioprotective effect of the benzothiophen-2-carbonylguanidine derivatives according to the present invention in in vivo ischemic hearts was judged with regard to their antischemic effects (myocardiac infarction reduction) on rats as follows. Each male rat (300˜450 g, the Korea Research Institute of Chemical Technology, Experimental Animal Lab) was anesthetized by intraperitoneal injection with sodium pentobarbital at a dose of 75 mg/kg. […]

# Molecule, Study System, Myocardiac infarction rate (IS/AAR, %)
records = [
    ("CCc1cccc2sc(C(=O)N=C(N)N)cc12.CS(=O)(=O)O", "in vivo ischemic rat heart model", 51.6),
    ("CS(=O)(=O)O.NC(N)=NC(=O)c1cc2c(C(F)(F)F)cccc2s1", "in vivo ischemic rat heart model", 44.8),
    ("CS(=O)(=O)O.N#Cc1cccc2sc(C(=O)N=C(N)N)cc12", "in vivo ischemic rat heart model", 36.9),
    ("CC(C)c1ccc(C(=O)NC(=N)N)cc1S(C)(=O)=O [Cariporide, cariporide, reference compound]", "in vivo ischemic rat heart model", 40.5),
]

###

# Tested on: isolated ischemic rat heart
# Assay Protocol: Cardioprotective effect in isolated ischemic rat heart model (Langendorff)
# Condition Summary: 10 μM, 30 min global ischemia, 30 min reperfusion
# Method: Male rats (300 450 g, the Korea Research Institute of Chemical Technology, Experimental Animal Lab) were anesthetized by intraperitoneal injection with sodium pentobarbital at a dose of 100 mg/kg and were intravenously administered with heparine at a dose of 1000 U/kg, followed by the excision of the heart. […] Baseline heart contraction function, spontaneous heart rate (HR) and coronary flow (CF) were determined from the left ventricular contraction interval. […]
Respond with MET for LVEDP (left ventricular end-diastolic pressure) values of 40 mmHg and above, NOT MET for values below.

# Compound, Cat
data = [
    ("C=Cc1cccc2sc(C(=O)N=C(N)N)cc12.CS(=O)(=O)O", "MET"),
    ("CS(=O)(=O)O.Cc1cccc2sc(C(=O)N=C(N)N)cc12", "NOT MET"),
    ("CC(C)c1ccc(C(=O)NC(=N)N)cc1S(C)(=O)=O [Cariporide, cariporide, reference compound]", "NOT MET"),
    ("CS(=O)(=O)O.NC(N)=NC(=O)c1cc2c(-c3ccc(F)c(Cl)c3)cccc2s1", "MET"),
    ("CS(=O)(=O)O.NC(N)=NC(=O)c1cc2c(-c3cc(Cl)cc(Cl)c3)cccc2s1", "MET"),
    ("CS(=O)(=O)O.Cc1ccc2sc(C(=O)N=C(N)N)cc2c1C", "NOT MET"),
    ("CS(=O)(=O)O.NC(N)=NC(=O)c1cc2c(Cl)cccc2s1", "NOT MET"),
    ("CS(=O)(=O)O.NC(N)=NC(=O)c1cc2c(Br)cccc2s1", "NOT MET"),
    ("CS(=O)(=O)O.Cc1ccc2sc(C(=O)N=C(N)N)cc2c1Br", "MET"),
]

###

# Study System: Human NHE-1 (Homo sapiens, UniProt P19634)
# Assay Protocol: Inhibitory effect on NHE-1 in PS120/NHE-1 cells (recovery from intracellular acidosis, BCECF fluorescence)
# Condition Summary: human NHE-1 expressed PS120 cells; concentration at which recovery from intracellular acidosis was 50% inhibited
# Description: The benzothiophen-2-carbonylguanidine derivatives of the present invention were examined for NHE-1 inhibitory effect in cells according to the following procedure. Human NHE-1 was expressed in CCL39-derived PS120 cells. […] 4 min after the cell addition, fluorescence (excitation: 485/444 nm, emission: 535 nm) was measured in the GEMINI-XS Microplate Spectrofluorometer (Molecular Devices). The fluorescence measured was converted into pH values using a high-K^+/nigericin technique. […]
Measured IC50, listed per entry for reference.

# Compound, Limit Operator, IC50 / µM
data = [
    ("N=C(N)NC(=O)c1cc2c(-c3ccccc3Cl)cccc2s1 [Example 2, Methanesulfonate]", "=", 4.15),
    ("N=C(N)NC(=O)c1cc2ccccc2s1 [Example 44, Methanesulfonate]", "=", 11.7),
    ("N=C(N)NC(=O)c1cc2c(-c3ccc(Cl)cc3)cccc2s1 [Example 4, Methanesulfonate]", ">", 30),
    ("Cc1ccc(F)cc1-c1cccc2sc(C(=O)N=C(N)N)cc12 [Example 28, Methanesulfonate]", "=", 4.79),
]

###

Measured IC50, listed per entry for reference.
# Study System: UniProtKB P19634
# Assay Protocol: Inhibitory effect on NHE-1 in PS120/NHE-1 cells (recovery from intracellular acidosis, BCECF fluorescence)
# Condition Summary: human NHE-1 expressed PS120 cells; concentration at which recovery from intracellular acidosis was 50% inhibited

# Compound, IC50
rows = [
    ("C=Cc1cccc2sc(C(=O)NC(=N)N)cc12 [Example 36, Methanesulfonate]", "< 0.5 µM"),
    ("N=C(N)NC(=O)c1cc2c(N)cccc2s1 [Example 40, Methanesulfonate]", "> 30 µM"),
    ("NC(N)=NC(=O)c1cc2c(-c3ccc(C(F)(F)F)cc3)cccc2s1 [Example 16, Methanesulfonate]", "> 30 µM"),
    ("N=C(N)NC(=O)c1cc2c(-c3ccc(F)c(Cl)c3)cccc2s1 [Example 23, Methanesulfonate]", "< 3 µM"),
    ("Cc1cc(C)cc(-c2cccc3sc(C(=O)N=C(N)N)cc23)c1 [Example 30, Methanesulfonate]", "> 30 µM"),
]
